System: OVCAR-5 ovarian
test-protocol: NCI-60 one-dose screen, 48 h (100 = growth as untreated, 0 = no growth, -100 = all killed)
condition-description: 10 µM unless noted
The panel holds about 83,000 compounds, 20% with a hit somewhere; the sample as a whole holds those more often.
Kindly state growth for each of the entries shown.
Output spec: scalar in %, unitless text.

// lookup growth for COc1ccc(-c2ccc(C)n2-c2ccc(-c3nc4cc(Cl)ccc4s3)cc2)cc1
74.6

# iterate: Cc1ccc(CSC(=N)N)cc1C
114

Also check COc1cc(/C=C/C(=O)c2c(C)nc3ccccc3c2C)ccc1OCCCCOc1cc2c(cc1OC)C(=O)N1CCC[C@H]1C=N2
-59.6

Lookup COc1cc(-c2nc(N=Nc3c(O)[nH]c4ccc(Br)cc34)[nH]c(=O)c2C#N)cc(OC)c1OC
101

Next compound up: CCN(CC)CCC(CNc1ccnc2cc(Cl)ccc12)c1ccccc1 (stereo not given)
87.9

Let us now turn to Clc1ccc2c(NC3CCC(NC4CCCCC4)CC3)ccnc2c1 (stereo not given)
84.4

Try this compound too: O=S(=O)(NCCCNc1nccc(-n2ccc3cccnc32)n1)c1cccc(C(F)(F)F)c1
101

And what about the compound COc1cc(/C=C/C(=O)/C=C/c2cc(OC)c3c(c2)OCO3)cc2c1OCO2 ?
107

// next record Nc1cccc(-c2nc3sccn3c2-c2ccnc(NCCNS(=O)(=O)c3ccc(C(F)(F)F)cc3)n2)c1
90.5

Here is the next compound: CN1CCN(Cc2ccc(NC(=O)c3cncc(C#Cc4cnc(N)c5cnccc45)c3)cc2C(F)(F)F)CC1
2.45

* * *

Test system: M14 melanoma
test-protocol: NCI-60 one-dose screen, 48 h
condition-description: 10 µM unless noted
Compounds without any hit were thinned out: in the full panel of roughly 83,000, 20% have a hit. Calls of active or inactive are those of the source. The calls were made as follows: active = growth percent below 10; inactive = the rest.
Your response should consist of one outcome taken from active, inactive

Dear colleague, could you share the recorded outcome for CC(C)(C)OC(=O)NCCc1ccc(N=C=S)cc1 when you have a moment?
inactive

Also check O=C(Nc1ccncc1)C(=O)c1cn(S(=O)(=O)c2ccc(Oc3ccccc3)cc2)c2ccccc12
inactive

Then this compound: CC1=C(C#N)C(=O)NC(C)C1 (stereo not given)
inactive

Same question, Clc1cc(Cl)c2nc(-c3ccc(-c4ccc(/C=N/NC5=NCCN5)cc4)s3)cn2c1 this time
inactive

Same question for O=C(NNC(=O)N1c2ccccc2C=Cc2ccccc21)c1ccc2ccccc2c1 please.
inactive

# repeat for O=C(NCc1cn(Cc2cccc(Oc3ccccc3)c2)nn1)c1cccnc1Nc1ccc(F)cc1
inactive

Entry to check: N/C(=N\C(N)=N\c1nc2ccccc2s1)c1cccc(Br)c1
inactive

Try the compound Clc1cccc(-c2cc(-c3ccc4c(c3)OCCO4)[nH]n2)c1
inactive

Next entry: COc1cc2c(cc1O)CCN1C[C@@H](CC(C)C)[C@@H](O)C[C@@H]21
inactive

Next compound: Cc1c(C(N)=O)sc2c1c(=O)n(Cc1ccccc1)c1nnc(Nc3ccccc3)n21
inactive

Same question for NC1=C(/C(N)=N/O)C(c2ccccc2)c2ccc3ccccc3c2O1 (stereo not given) please.
inactive

And for COc1cc(/C=C/C(=O)c2ccc(Nc3ncnc4cc(OC)c(OC)cc34)cc2)cc(OC)c1 ?
inactive

Do the same for Cc1ccc(S(=O)(=O)Nc2c(Br)cc(Br)cc2C(N)=O)cc1 please
inactive

And S=c1[nH]nc(-c2cc3ccc2CCc2ccc(cc2)CC3)n1-c1ccccc1 ?
inactive

Would you mind doing O=C(NNC(=S)Nc1ccccc1)c1cc2ccc1CCc1ccc(cc1)CC2 as well?
inactive

What would you report for Cc1ccc(S(=O)(=O)NCCCNc2cc(-c3cn(C(C)(C)C)nc3-c3cccc(O)c3)ccn2)cc1 ?
inactive

Next record, please: N=C(N)c1ccc(-c2ccc(-c3ccc(-c4cccs4)s3)s2)cc1
inactive

Follow-up item: Clc1ccc(-c2nc3ccccc3s2)cc1Cl
inactive

Now try C=C(C)[C@@H]1CC[C@]2(C(=O)N3CCNCC3)CC[C@]3(C)[C@H](CC[C@@H]4[C@@]5(C)C/C(=C/c6ccncc6)C(=O)C(C)(C)[C@@H]5CC[C@]43C)[C@@H]12 .
inactive

Also need O=C1/C(=C/c2ccc(Cl)cc2)CN(Cc2cn(CCNc3ccnc4cc(Cl)ccc34)nn2)C/C1=C\c1ccc(Cl)cc1 , thanks.
active

Please give the result for COc1ccc(C2C(C#N)=C(N)Oc3c2ccc2ccccc32)cc1 (stereo not given) too.
inactive

Likewise for O=C(Nc1cccc(-n2cc(-c3ccncc3)c(-c3ccc(Cl)c(O)c3)n2)c1)Nc1cc(C(F)(F)F)cc(C(F)(F)F)c1 ?
active

Thanks! And CCN(CC)c1ccc(/C=C2\Oc3ccc(O)c(I)c3C2=O)cc1 ?
inactive

Same question, Cc1cc(N/N=C/c2nc(-c3ccccc3)oc2C)c2cc(Br)ccc2n1 this time
inactive

Now try Nc1cccc(-c2nc3sccn3c2-c2ccnc(NCCCNS(=O)(=O)c3cccc4ccccc34)n2)c1 .
inactive

Same for CCN(CC)CCOc1ccc(/C(=C(/C)c2ccccc2)c2ccc(OC(C)=O)cc2)cc1
inactive

Now try COC(=O)c1cc2cc(-c3ccc(OC)cc3)cnc2[nH]1 .
inactive

Thanks! And CCN(CC)CCC(CNc1c2ccc(Cl)cc2nc2ccc(OC)cc12)c1ccccc1 (stereo not given) ?
active

Ok, now COc1ccc(-c2c(N)n[nH]c2-c2cc(OC)c3c(c2)OCCO3)cc1
inactive

Proceed to CC(C)CSc1nc(NN)c(C#N)c(-c2ccc(F)cc2)n1
inactive

Repeat for the following compound: COc1ccc(C(=O)c2cc(OC)c3c(c2)OCO3)cc1O
inactive

Try this compound too: CC1CCC(C)N(C)C1 (stereo not given)
inactive

Same lookup for O=C(/C=C/c1c[nH]c2ccccc12)c1ccc(O)c(CN2CCN(c3ccc(F)cc3)CC2)c1 , please.
inactive

Field entry: N#Cc1c(Nc2ccccc2)nc2n(c1=O)-c1ccccc1Sc1ccccc1-2
inactive

And what about the compound S=C(S)NCCc1c[nH]c2ccccc12 ?
inactive

Repeat with COc1ccc(S(=O)(=O)NCCCNc2nccc(-c3c(-c4cccc([N+](=O)[O-])c4)nc4sccn34)n2)cc1
inactive

CCN(CC)CCC(CNc1ccnc2cc(Cl)ccc12)c1ccc(Cl)cc1 (stereo not given) ?
active

And what about the compound COc1cccc(-c2nc3sccn3c2-c2ccnc(NCCCNS(=O)(=O)c3ccc(F)cc3)c2)c1 ?
inactive

Try this compound too: O=C(Nc1cccc(-n2cc(-c3ccncc3)c(-c3ccc(Cl)c(O)c3)n2)c1)c1ccc(N2CCOCC2)c(C(F)(F)F)c1
inactive

Cool, now COc1cc(C(=O)/C=C/c2ccc3nc(-c4cc(F)cc(F)c4)sc3c2)cc(OC)c1OC
inactive
